system: mucin immobilized to IAM.PC.DD2; experiment: HPLC on MIC column (2:1 mucin to PC IAM particles): retention time, k′MIC, derived Km and Peff MIC; settings: MIC 2:1; Table 5
Structures can show the parent of a compound that is named as a salt.
Threshold 50: K′MIC strictly smaller gives 1, otherwise 0.

For orientation, consider the following solved cases.
COc1ccc(CCN(C)CCCC(C#N)(c2ccc(OC)c(OC)c2)C(C)C)cc1OC (stereo not shown) [Verapamil] : 0
CC(C(=O)O)c1cccc(C(=O)c2ccccc2)c1 (stereo not shown) [Ketoprofen] : 0
CC(C)NCC(O)COc1cccc2ccccc12 (stereo not shown) [Propranolol] : 0
CCOC(=O)[C@H](CCc1ccccc1)N[C@@H](C)C(=O)N1CCC[C@H]1C(=O)O [enalapril maleate] : 1
CN(CC(=O)O)C(=N)N [Creatine] : 1

Lookup: Consider COCCc1ccc(OCC(O)CNC(C)C)cc1 (stereo not shown) [Metoprolol] . Does its K′MIC lie strictly below 50?
Found: 1

Lookup: Field: below-cutoff. Rule: recorded K′MIC strictly less than 50. Subject: CC(C)(C)NCC(O)c1cc(O)cc(O)c1 (stereo not shown) [Terbutaline]
Found: 1

Lookup: Please check: K′MIC for NC(=O)N1c2ccccc2C=Cc2ccccc21 [carbamazepine] , strictly under 50 or not?
Found: 0

Lookup: # check: K′MIC < 50 for Cc1cc(=O)n(-c2ccccc2)n1C [Antipyrine]
Found: 0

Lookup: Dear reviewer, please state whether C[C@](N)(Cc1ccc(O)c(O)c1)C(=O)O [α-methyldopa] has K′MIC strictly beneath 50.
Found: 1

====

Consider the following molecules; for each one, report its Dm.
test system: mucin immobilized to IAM.PC.DD2; test: HPLC on MIC column (2:1 mucin to PC IAM particles): retention time, k′MIC, derived Km and Peff MIC; settings: membrane diffusion coefficient calculated from molecular weight
Structures can show the parent of a compound that is named as a salt.
One number for each entry.

Below are worked cases with known answers.
CN(CC(=O)O)C(=N)N [Creatine] : 0.0088
C[C@]12C[C@H](O)[C@H]3[C@@H](CCC4=CC(=O)CC[C@@]43C)[C@@H]1CC[C@@H]2C(=O)CO [corticosterone] : 0.0029

Could you tell me Dm for each of these molecules? They are listed below.
1. CC(C)(C)NC[C@H](O)COc1nsnc1N1CCOCC1 [Timolol]
2. C=C[C@H]1C[N@@]2CC[C@H]1C[C@@H]2[C@@H](O)c1ccnc2ccc(OC)cc12 [quinidine, HCl]
3. CC(C)(C)NCC(O)c1cc(O)cc(O)c1 (stereo not shown) [Terbutaline]
4. CC(C(=O)O)c1cccc(C(=O)c2ccccc2)c1 (stereo not shown) [Ketoprofen]
5. CC(=O)CC(c1ccccc1)c1c(O)c2ccccc2oc1=O (stereo not shown) [Warfarin]

Found:
[0.0023, 0.0026, 0.0036, 0.0039, 0.0032]

State the recorded Dm for every item in the following list.
1. Nc1nc2c(ncn2COCCO)c(=O)[nH]1 [Acyclovir]
2. NC(=O)N1c2ccccc2C=Cc2ccccc21 [carbamazepine]

Found:
1: 0.0044; 2: 0.0042

Lookup: Given the molecule CC(CCc1ccccc1)NCC(O)c1ccc(O)c(C(N)=O)c1 (stereo not shown) [Labetalol] , what is its reported Dm?
Found: 0.0027

====

tested on: mucin immobilized to IAM.PC.DD2; assay: HPLC on MIC column (2:1 mucin to PC IAM particles): retention time, k′MIC, derived Km and Peff MIC
Lab note: compare δ = log k′MIC − log k′IAM against 1. Equal or greater, write YES. Smaller, write NO.

Cc1cc(=O)n(-c2ccccc2)n1C [Antipyrine] : YES
COCCc1ccc(OCC(O)CNC(C)C)cc1 (stereo not drawn) : YES
CC(C)NCC(O)COc1cccc2ccccc12 (stereo not drawn) : NO
CC(=O)CC(c1ccccc1)c1c(O)c2ccccc2oc1=O (stereo not drawn) : NO
CC(C)(C)NCC(O)c1cc(O)cc(O)c1 (stereo not drawn) : YES

Let us examine a further case.
Lookup: Hi team, for C[C@]12C[C@H](O)[C@H]3[C@@H](CCC4=CC(=O)CC[C@@]43C)[C@@H]1CC[C@@H]2C(=O)CO , is the recorded δ = log k′MIC − log k′IAM at or above 1?
Found: NO

====

system: mucin immobilized to PC IAM particles; assay: pH and mucin layer thickness dependence of partition ratio on MIC columns (1:2 and 2:1); details: column 1:2 mucin to PC IAM, 0.32 μm mucin layer; mobile phase pH 7
Kindly supply the reported (1:2) k′ (pH 7) values for the records listed here.
Answers are plain numbers.

Reference set, count: 2
CC(C)(C)NCC(O)c1cc(O)cc(O)c1 (centres unmarked) : 39.00
CC(=O)CC(c1ccccc1)c1c(O)c2ccccc2oc1=O (centres unmarked) : 39.00

Okay, now this compound:
Lookup: Any idea what its (1:2) k′ (pH 7) is? The compound is O=C(O)c1cc(/N=N/c2ccc(S(=O)(=O)Nc3ccccn3)cc2)ccc1O
Found: 24.00

====

test system: mucin immobilized to IAM.PC.DD2; test: HPLC on MIC column (2:1 mucin to PC IAM particles): retention time, k′MIC, derived Km and Peff MIC; details: MIC 2:1; Table 6
Kindly supply the reported K′MIC values for the records listed here.
Give bare numbers.

Solved entries:
CC(C)NCC(O)COc1cccc2ccccc12 (stereo not shown) : 70.43
CC(C)(C)NCC(O)c1cc(O)cc(O)c1 (stereo not shown) : 43.29
COCCc1ccc(OCC(O)CNC(C)C)cc1 (stereo not shown) : 43.29

Lookup: Request the reported K′MIC associated with NC(=O)N1c2ccccc2C=Cc2ccccc21 [carbamazepine]
Found: 59.00

====

test system: mucin immobilized to IAM.PC.DD2; test: HPLC on MIC column (2:1 mucin to PC IAM particles): retention time, k′MIC, derived Km and Peff MIC; details: MIC column 2:1 mucin:IAM; MPS pH 7.4; isocratic 0.3 ml/min
Where a name gives a salt, the structure may show the parent alone.
Measured Metric: Retention Time

CC(C)(C)NC[C@H](O)COc1nsnc1N1CCOCC1 : 2.6
CC(=O)Oc1ccccc1C(=O)O : 2.8

Please go through the list and note Retention Time for each compound.
1. CC(C)(C)NCC(O)c1cc(O)cc(O)c1 (stereo not shown)
2. O=C(O)c1cc(/N=N/c2ccc(S(=O)(=O)Nc3ccccn3)cc2)ccc1O
3. OC[C@@H](O)[C@@H](O)[C@H](O)[C@H](O)CO
4. CCOC(=O)[C@H](CCc1ccccc1)N[C@@H](C)C(=O)N1CCC[C@H]1C(=O)O [enalapril maleate]
5. C=CCc1ccccc1OCC(O)CNC(C)C (stereo not shown)
6. CC(C(=O)O)c1cccc(C(=O)c2ccccc2)c1 (stereo not shown)
7. COc1ccc(CCN(C)CCCC(C#N)(c2ccc(OC)c(OC)c2)C(C)C)cc1OC (stereo not shown)

Found:
[3.1, 5.1, 2.4, 2.6, 3.3, 3.8, 5.1]

Lookup: Look at this compound and give its reported Retention Time. COCCc1ccc(OCC(O)CNC(C)C)cc1 (stereo not shown)
Found: 3.1

====

Field: k′MIC. Provide a value for each of the molecules that follow.
test system: mucin immobilized to IAM.PC.DD2; assay: HPLC on MIC column (2:1 mucin to PC IAM particles): retention time, k′MIC, derived Km and Peff MIC; settings: MIC column 2:1 mucin:IAM; MPS pH 7.4

// known answers, use as guide
CC(C(=O)O)c1cccc(C(=O)c2ccccc2)c1 (centres unmarked) [Ketoprofen] : 52.5714
Cc1cc(=O)n(-c2ccccc2)n1C [Antipyrine] : 77.5714
CC(CCc1ccccc1)NCC(O)c1ccc(O)c(C(N)=O)c1 (centres unmarked) [Labetalol] : 53.2857

Give k′MIC for all molecules that follow.
1. CN(CC(=O)O)C(=N)N [Creatine]
2. CC(=O)Nc1ccc(O)cc1 [acetaminophen]
3. COc1ccc(CCN(C)CCCC(C#N)(c2ccc(OC)c(OC)c2)C(C)C)cc1OC (centres unmarked) [Verapamil]
4. NC(=O)N1c2ccccc2C=Cc2ccccc21 [carbamazepine]

Found:
1: 30.4286; 2: 38.2857; 3: 71.8571; 4: 59.0000

====

system: mucin immobilized to IAM.PC.DD2; assay: HPLC on MIC column (2:1 mucin to PC IAM particles): retention time, k′MIC, derived Km and Peff MIC; conditions: MIC column 2:1 mucin:IAM; MPS pH 7.4; isocratic 0.3 ml/min
Counter-ions that a name gives are not always drawn.
Measured Metric: Retention Time
Give bare numbers.

Worked examples, 6 molecules total:
C[C@](N)(Cc1ccc(O)c(O)c1)C(=O)O : 2.4
CN(CC(=O)O)C(=N)N : 2.2
Nc1nc2c(ncn2COCCO)c(=O)[nH]1 : 2.4
C=C[C@H]1C[N@@]2CC[C@H]1C[C@@H]2[C@@H](O)c1ccnc2ccc(OC)cc12 [quinidine, HCl] : 5.0
C[C@]12C[C@H](O)[C@H]3[C@@H](CCC4=CC(=O)CC[C@@]43C)[C@@H]1CC[C@@H]2C(=O)CO : 4.3
Cc1cc(=O)n(-c2ccccc2)n1C [Antipyrine] : 5.5

Now for a further molecule.
Lookup: Given the entry NC(=O)N1c2ccccc2C=Cc2ccccc21 [carbamazepine] , report its measured Retention Time.
Found: 4.2
